molecular target: CYP2D6 (Homo sapiens); assay: in vitro; settings: recombinant CYP2D6, pH 7.4
Sequence (P10635 whole entry): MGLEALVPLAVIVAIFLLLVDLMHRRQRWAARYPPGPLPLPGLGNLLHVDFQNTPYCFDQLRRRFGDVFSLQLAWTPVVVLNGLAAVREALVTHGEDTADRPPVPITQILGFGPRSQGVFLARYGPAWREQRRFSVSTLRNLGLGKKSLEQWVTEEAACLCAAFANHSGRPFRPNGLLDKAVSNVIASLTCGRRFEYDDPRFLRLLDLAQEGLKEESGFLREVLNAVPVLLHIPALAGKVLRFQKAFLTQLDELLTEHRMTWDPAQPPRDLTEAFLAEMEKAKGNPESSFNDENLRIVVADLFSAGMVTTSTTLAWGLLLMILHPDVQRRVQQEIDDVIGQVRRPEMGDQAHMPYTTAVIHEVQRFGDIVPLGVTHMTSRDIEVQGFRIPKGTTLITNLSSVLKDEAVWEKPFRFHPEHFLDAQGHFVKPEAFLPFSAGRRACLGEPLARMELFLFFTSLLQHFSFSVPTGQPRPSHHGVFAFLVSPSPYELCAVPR
Task for the reader: assign each of the following compounds its reported half-life at 1 µmol/L.
Please state the figure in min; there is no need to write the unit.

Problem: Quick one: half-life at 1 µmol/L of O=C(C1CCCCC1)N1CC(=O)N2CCc3ccccc3[C@H]2C1 [S‐PZQ, S‐Praziquantel] ?
Solution: 45.3

Problem: Quick one: half-life at 1 µmol/L of O=C(C1CCCCC1)N1CC(=O)N2CCc3ccccc3[C@@H]2C1 [R‐PZQ, R‐Praziquantel] ?
Solution: 34.7

---

biological target: CYP1A2 (Homo sapiens); experiment: in vitro; details: recombinant CYP1A2, pH 7.4
Sequence (P05177 whole entry): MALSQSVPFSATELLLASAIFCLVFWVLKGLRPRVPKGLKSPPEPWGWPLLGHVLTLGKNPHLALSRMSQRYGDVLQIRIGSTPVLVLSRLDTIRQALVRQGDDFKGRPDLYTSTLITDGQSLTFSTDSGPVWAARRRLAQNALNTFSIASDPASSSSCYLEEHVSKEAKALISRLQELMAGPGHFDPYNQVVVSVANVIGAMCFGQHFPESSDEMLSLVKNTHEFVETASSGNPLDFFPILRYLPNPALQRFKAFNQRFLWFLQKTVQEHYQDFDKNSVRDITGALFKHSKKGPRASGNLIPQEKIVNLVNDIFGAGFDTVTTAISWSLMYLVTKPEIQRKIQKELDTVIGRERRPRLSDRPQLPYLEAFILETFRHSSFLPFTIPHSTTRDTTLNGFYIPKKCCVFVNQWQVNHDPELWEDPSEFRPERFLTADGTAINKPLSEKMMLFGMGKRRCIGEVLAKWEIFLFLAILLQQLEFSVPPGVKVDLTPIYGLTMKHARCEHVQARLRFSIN
measured.endpoint: half-life at 1 µmol/L (min)
Please state the figure in min; there is no need to write the unit.

Problem: Quick one: half-life at 1 µmol/L of O=C(C1CCCCC1)N1CC(=O)N2CCc3ccccc3[C@H]2C1 ?
Solution: 16

Problem: Quick one: half-life at 1 µmol/L of O=C(C1CCCCC1)N1CC(=O)N2CCc3ccccc3[C@@H]2C1 ?
Solution: 7.54
